- System: CCRIS mutagenicity, Ames/micronucleus/aberration tests
- MEASUREMENT PROTOCOL: CCRIS mutagenicity studies
- SETTINGS: Test System: AMES SALMONELLA TYPHIMURIUM; Strain/Indicator: TA2638; Metabolic Activation: NONE; Method: STANDARD PLATE
- Text: The CCRIS database contains chemical records with carcinogenicity, mutagenicity, tumor promotion, and tumor inhibition test results. It was developed by the National Cancer Institute (NCI). Data are derived from studies cited in primary journals, current awareness tools, NCI reports, and other sources. Test results have been reviewed by experts in carcinogenesis and mutagenesis. CCRIS provides historical information from the years 1985 - 2011. It is no longer updated. […]
The source made the active and inactive calls. The rule behind the calls is not given here.
Outcome codes: active, inactive

[[record]]
chemical_smiles = "CNNC"
target_desc = "CCRIS mutagenicity, Ames/micronucleus/aberration tests"
group = "active"

[[record]]
chemical_smiles = "ICI"
target_desc = "CCRIS mutagenicity, Ames/micronucleus/aberration tests"
group = "inactive"

[[record]]
chemical_smiles = "C=CC=O"
target_desc = "CCRIS mutagenicity, Ames/micronucleus/aberration tests"
group = "active"

[[record]]
chemical_smiles = "ClCCl"
target_desc = "CCRIS mutagenicity, Ames/micronucleus/aberration tests"
group = "inactive"


====

- System: CCRIS mutagenicity, Ames/micronucleus/aberration tests
- MEASUREMENT PROTOCOL: CCRIS mutagenicity studies
- SETTINGS: Test System: AMES SALMONELLA TYPHIMURIUM; Strain/Indicator: TA100; Metabolic Activation: NONE; Method: STANDARD PLATE
Activity calls are given as the source filed them. How the calls were made is not given here.
OBSERVATION TYPE: mutagenic call

[[record]]
compound = "CCc1cccc2c3c([nH]c12)C(C)(CC)OCC3 (stereo not drawn)"
observation_type = "mutagenic call"
result = "inactive; negative"

[[record]]
compound = "C=C(C)C(=O)OCC"
observation_type = "mutagenic call"
result = "inactive; negative"


====

- Test system: CCRIS mutagenicity, Ames/micronucleus/aberration tests
- MEASUREMENT PROTOCOL: CCRIS mutagenicity studies
- SETTINGS: Test System: AMES SALMONELLA TYPHIMURIUM; Strain/Indicator: TA98; Metabolic Activation: NONE; Method: STANDARD PLATE
The source made the active and inactive calls. The rule behind the calls is not given here.
Outcome codes: active, inactive

[[record]]
molecule = "CC(=O)Nc1ccc([C@@H]2O[C@@H]2C(=O)c2ccccc2)cc1"
group = "inactive"

[[record]]
molecule = "CC(O)CCC(=O)c1ccoc1 (configuration not stated)"
group = "inactive"

[[record]]
molecule = "O=C1CCC(=O)N1c1ccc(Cl)cc1"
group = "inactive"

[[record]]
molecule = "O=[N+]([O-])c1ccc(/C=N/n2cccn2)o1"
group = "active"

[[record]]
molecule = "COc1cc2c(c(OC)c1OC)-c1ccc(OC)c(=O)cc1[C@@H](NC(C)=O)CC2"
group = "inactive"

[[record]]
molecule = "CC(=O)OC1Cc2c3ccc4ccccc4c3cc3ccc(C)c1c23 (configuration not stated)"
group = "inactive"

[[record]]
molecule = "COC(=O)Nc1nc2ccc(C(=O)c3ccccc3)cc2[nH]1"
group = "inactive"

[[record]]
molecule = "CC1=CC(C=O)C(C=O)=C[C@@H]2CC(C)(C)C[C@H]12 (some centres not stated)"
group = "inactive"

[[record]]
molecule = "O=[N+]([O-])c1cc2ccccc2c2ccccc12"
group = "active"

[[record]]
molecule = "ClNc1nc(NCl)nc(NCl)n1"
group = "inactive"

[[record]]
molecule = "CC(C)(O)CCc1ccc(O)c2c(=O)c3c(O)c4c(cc3oc12)O[C@H]1OC=C[C@@H]41"
group = "active"

[[record]]
molecule = "CCCCC(CC)COC(=O)CCCCC(=O)O (configuration not stated)"
group = "inactive"

[[record]]
molecule = "O=Nc1ccc2ccc3c4ccccc4cc4ccc1c2c43"
group = "active"

[[record]]
molecule = "N#CC(Cl)Br (configuration not stated)"
group = "inactive"

[[record]]
molecule = "C1CSCCO1"
group = "inactive"

[[record]]
molecule = "CC(C)(C)OC(=O)O/N=C(/C#N)c1ccccc1"
group = "inactive"

[[record]]
molecule = "NNC(=O)CNc1ccc2ccccc2c1"
group = "inactive"

[[record]]
molecule = "CN(C)CCCNc1c2ccccc2nc2c(Cl)ccc([N+](=O)[O-])c12"
group = "active"

[[record]]
molecule = "O=C(O)c1cccc2cccnc12"
group = "inactive"

[[record]]
molecule = "O=[N+]([O-])/C(Br)=C\\c1ccccc1"
group = "inactive"

[[record]]
molecule = "C=C(C)C1CCC(=C)C2C3=C(C[C@H](C)C3=O)C(=O)C(C)=C[C@@H]12 (some centres not stated)"
group = "inactive"

[[record]]
molecule = "COc1ccc2nc3cc(Cl)ccc3c(NCCCNCCCl)c2n1"
group = "active"

